- tested system: Casp6-L200A-LS-SS (Homo sapiens, UniProt P55212, L200A)
- Construct: obtained by co-expression and purification of LS and SS subunits of WT, L200A or K284A Casp6 from E. coli; His (C)
- Sequence (P55212 24-179 limits assumed): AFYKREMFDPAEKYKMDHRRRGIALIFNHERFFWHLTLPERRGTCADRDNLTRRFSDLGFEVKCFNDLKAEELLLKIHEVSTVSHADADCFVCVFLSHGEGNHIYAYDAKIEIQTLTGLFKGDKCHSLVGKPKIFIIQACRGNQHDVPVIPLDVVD
- Sequence (P55212 194-293 L200A limits assumed): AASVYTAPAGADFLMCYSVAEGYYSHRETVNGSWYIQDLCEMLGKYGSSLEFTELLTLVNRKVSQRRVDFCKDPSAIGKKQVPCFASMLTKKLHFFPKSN
- assay remarks: C13 dose-response and global-fit kinetics on Casp6-L200A-LS-SS
- test context: copurified LS and SS; read-out: IC50 of C13 for Casp6-L200A-LS-SS (Fig. 4g)
measured endpoint: IC50 (µM)
// return numeric value only (unit: µM, not printed)

Enquiry: Looking for the measured IC50 of COC(=O)c1cc(CNC(=O)C2Cc3ccccc3O2)cc(NC(=O)c2ccco2)c1 (stereo not shown) , can you help?
Return: 23.4
